Every entry's value here was drawn from ChEMBL document CHEMBL1201862.

tested on: MCF7; experiment: NCI tumour cell line growth inhibition, 48 h
The source made the active and inactive calls. No stated cut-off is given here; in the data, active = GI50 up to about 1.1 µM and inactive = higher.
Entry note: the call must match one of active, inactive

What is the recorded call for this compound in the test? COc1ccc(/C=C2\CN(C)Cc3c2nc(O)c(C#N)c3-c2ccc(OC)cc2)cc1
inactive

Item: CC1CC[C@@]2(OC1)OC1C[C@H]3[C@@H]4CC=C5CC(OC6OC(CO)C(OC7OC(CO)C(O)C(OC8OCC(O)C(O)C8O)C7OC7OC(CO)C(OC8OC(C)C(OC9OC(C)C(O)C(O)C9O)C(O)C8O)C(O)C7O)C(O)C6O)CCC5(C)[C@H]4CCC3(C)C1[C@@H]2C (stereo partly specified)
inactive

Item: CC12CC(OC(=O)[C@]1(C)O)[C@@H]([C@]1(O)CC[C@H]3[C@@H]4C[C@H]5O[C@]56[C@@H](O)C=CC(=O)[C@]6(C)[C@H]4CC[C@@]31C)C2 (stereo partly specified)
inactive

Item: CC(=O)Oc1ccc(-c2nnc(-c3ccc(OC(C)=O)cc3)nn2)cc1
inactive

Item: O=C1C2=C(CC3=C(C2)CS(=O)(=O)C3)C(=O)C2=C1CC1=C(C2)CS(=O)(=O)C1
inactive

Item: CCOC(=O)C1OC(C2(C)OC3(OC4(C=CC3O)OC(C(C)C(=O)C(C)C(O)C(C)CC(C)c3c(Cl)cc(C)c(O)c3C(=O)O)C(C)CC4C)C(C)C2OC)CC1O (stereo unspecified)
active

###

tested on: ACHN; experiment: NCI tumour cell line growth inhibition, 48 h
The source made the active and inactive calls. No stated cut-off is given here; in the data, active = GI50 up to about 1.1 µM and inactive = higher.
property.name: GI50

- COC(=O)NC(C(F)(F)F)(C(F)(F)F)P1(=O)OCCCO1: 21.4 µM (inactive)
- COC(=O)/C(C#N)=C1\CCc2ccccc21: > 100 µM (inactive)
- Cn1c(O)c(C(=O)NC2CCCCC2)c(=O)n(C)c1=S: 3.57 µM (inactive)
- O=C1C=CC(=O)c2c1ccc1c3ccccc3n(CCCCCn3c4ccccc4c4ccc5c(c43)C(=O)C=CC5=O)c21: 15.3 µM (inactive)
- CC1C(=O)OC2CC[N+]3([O-])CC=C(COC(=O)C(C)(O)C1(C)O)C23 (centres undefined): > 100 µM (inactive)
- C#CCNC(=O)NC(CCCCNC(=O)OCc1ccccc1)C(=O)OCc1ccccc1 (centres undefined): 40.1 µM (inactive)

Could I get GI50 for every one of these entries?
1. CN(C)CCN1C(=O)CC[C@@]2(C)C1=CC[C@@H]1[C@@H]2CC[C@@]2(C)[C@H]1CC[C@]2(C)O
2. CCCCc1ccc(Nc2nc3c(ncn3C3OC(COC(C)=O)C(OC(C)=O)C3OC(C)=O)c(=O)[nH]2)cc1 (centres undefined)
3. Nc1c(-c2nc3ccccc3o2)sc(=S)n1-c1ccc(Cl)cc1

> 100 µM (inactive)
65 µM (inactive)
9.1 µM (inactive)

###

tested on: RPMI-8226; test: NCI tumour cell line growth inhibition, 48 h
Activity calls are given as the source filed them. No stated cut-off is given here; in the data, active = GI50 up to about 1.1 µM and inactive = higher.
Entry note: the call must match one of active, inactive

Answered examples (6):
- COc1ccc2c(c1)NC1(CCN(CCCC(=O)c3ccc(F)cc3)CC1)N=N2: inactive
- FC(F)(F)c1ccc2c(-c3cc[nH]c3)ccnc2c1: inactive
- CC(=O)/C=C1\Nc2ccccc2N\C1=C/C(C)=O: inactive
- CC(=O)CC(=O)ON(C)C(=O)Cc1ccccc1: inactive
- C/C(=N\O)C(CN(C)C)C(c1ccccc1)c1c(O)c2ccccc2oc1=O (centres undefined): inactive
- O=C1C2=C(CC3=C(C2)CS(=O)(=O)C3)C(=O)C2=C1CC1=C(C2)CS(=O)(=O)C1: inactive

What is the recorded call for this compound in the test? Cc1cccc(C)c1/N=N/c1ccc(O)c(CN(C)C)c1
inactive

Item: Clc1ccc(Cl)c2[s+]snc12
inactive

Item: Cc1ccccc1C(=O)NC(O)(C(F)(F)F)C(F)(F)F
inactive

Item: Oc1ccc(/C=C/c2cc(O)cc(O)c2)cc1 [RESVERATROL]
inactive

Item: Nc1ccc(CCSSCCc2ccc(N)cc2)cc1
inactive

Item: CCC(=O)Nc1ccc(N2C(=O)C(Cl)C2c2ccc(SC)cc2)cc1 (centres undefined)
inactive

Item: Cc1cc(NCCCCCCCCNc2cc(C)nc3cc(N)ccc23)c2ccc(N)cc2n1
inactive

Item: O=C(Nc1ccccc1)c1cc2c(cc1Cl)SC(NNCCO)=NS2(=O)=O
inactive

Item: Cc1ccc2c(=O)c(-c3nnsn3)c[nH]c2n1
inactive
